Molecular target: KRAS G12D (Homo sapiens (Human), UniProt P01116+P62937, G12D)
Sequence (P01116-2 other isoform, or with tags, fused parts or gaps G12D): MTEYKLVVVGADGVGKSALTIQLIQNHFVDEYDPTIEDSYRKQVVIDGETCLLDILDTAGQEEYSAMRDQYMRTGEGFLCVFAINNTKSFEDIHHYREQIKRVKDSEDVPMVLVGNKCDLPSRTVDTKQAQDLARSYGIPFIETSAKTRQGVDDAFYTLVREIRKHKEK
Sequence (P62937 whole entry): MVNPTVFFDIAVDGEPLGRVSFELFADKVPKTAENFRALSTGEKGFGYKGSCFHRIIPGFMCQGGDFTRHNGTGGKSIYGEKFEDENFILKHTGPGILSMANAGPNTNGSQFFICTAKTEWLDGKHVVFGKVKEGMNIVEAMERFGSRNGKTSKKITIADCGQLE
Assay: Ras-Raf (BRAF RBD) disruption / FRET / MOA assay, KRAS G12D
Type: biochemical
Settings: Ras-Raf disruption/FRET/MOA assay; class symbols; read-out: KRAS G12D FRET data IC50
outcome-measure: IC50

Can you share its IC50? I mean this molecule: CCn1c(-c2cccnc2[C@H](C)OC)c2c3cc(ccc31)-c1csc(n1)C[C@H](NC(=O)[C@H](C(C)C)N(C)C(=O)[C@H]1CCC(C(=O)/C=C/CN(C)C)C1)C(=O)N1CCC[C@H](N1)C(=O)OCC(C)(C)C2 (stereo partly shown)
1 to 10 µM

Field entry: C=CC(=O)N1CC[C@H](C(=O)N(C)[C@H](C(=O)N[C@H]2Cc3cc(cc(C(F)F)c3)-c3ccc4c(c3)c(c(-c3cc(N5CCN(C)CC5)cnc3[C@H](C)OC)n4CC(F)(F)F)CC(C)(C)COC(=O)[C@@H]3CCCN(N3)C2=O)C(C)C)C1 (atropisomer, axis not shown)
1 to 10 µM

Then this molecule: C=CC(=O)N(C)CCCC(=O)N(C)[C@H](C(=O)N[C@H]1Cc2cc(O)cc(c2)-c2ccc3c(c2)c(c(-c2cccnc2COC)n3CC)CC(C)(C)COC(=O)[C@@H]2CCCN(N2)C1=O)C(C)C
1 to 10 µM

Check C=CC(=O)N(C)[C@H]1CN(C(=O)N(C)[C@H](C(=O)N[C@H]2Cc3nc(cs3)-c3ccc4c(c3)c(c(-c3cccnc3[C@H](C)OC)n4CC)CC(C)(C)COC(=O)[C@@H]3CCCN(N3)C2=O)C(C)C)C[C@H]1F (atropisomer, axis not shown) too.
1 to 10 µM

Provenance of the data: patent US11566007B2
